Test: NCI Yeast Anticancer Drug Screen. Data for the cln2 rad14 strain (AID 165);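 note: 0% = growth equal to vehicle treated cultures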
Settings: S. cerevisiae cln2 rad14 strain, at 50.0 µM
The panel holds about 79,000 compounds, 15% with a hit somewhere; the sample as a whole holds those more often. Calls of active or inactive are those of the source. Cut-off read from the data, not from the text of the source: active = growth inhibition above about 70%; inactive = the rest.
Mark one answer only. Choices: yes (active), no (inactive)

Query :: I would be grateful if you could indicate the recorded call for CC1=NC(C(=O)O)C(C)(C)S1 (configuration not stated) .
Result :: no

Query :: Which outcome did this test record for the compound CCC[CH2][Sn]([CH2]CCC)([O]C(=O)c1cccc(F)c1F)[O][Sn]([CH2]CCC)([CH2]CCC)[O]C(=O)c1cccc(F)c1F ?
Result :: yes

Query :: Query: recorded result category for Cc1cccc(C)c1NC(=O)C(=O)CC(=O)CO in this test
Result :: no

Query :: Any idea what this test logged for O=c1[nH]nc(-c2ccccc2)n1-n1cccc1 ?
Result :: no

Query :: Which outcome did this test record for the compound CCN1C(=O)/C(=C/c2ccc(OCC(=O)O)cc2)SC1=S ?
Result :: no

Query :: Look up the recorded call for N/N=C(\C(=O)Nc1c(Cl)cc([N+](=O)[O-])cc1Cl)C(c1cnc2ccc([N+](=O)[O-])cc2n1)[N+](=O)[O-] (configuration not stated) in this test.
Result :: no

Query :: # outcome recorded in this test, key = CC1=CC2(C)OC3C(=O)N(c4ccc(Cl)cc4)C(=O)C3C2N=C1 (configuration not stated)
Result :: no

* * *

Assay: NCI Yeast Anticancer Drug Screen. Data for the mec2-1 strain (AID 157)
Conditions: S. cerevisiae mec2-1 strain, at 50.0 µM, active compounds read high
The panel holds about 79,000 compounds, 15% with a hit somewhere; the sample as a whole holds those more often.
quantity measured: growth inhibition (%)
Note: unit % is implicit; provide only the numeric part.

Query :: May I ask what growth inhibition has been recorded for COS(=O)(=O)OC1(SC)C=C(c2ccccc2)SS1 (centres undefined) ?
Result :: 28.1

Query :: Quick one: growth inhibition of Clc1ccc(OCc2nnc3n2N=C(c2ccccc2)CS3)cc1 ?
Result :: 7.1

Query :: Tell me the measured growth inhibition of O=C(CCl)Nc1cc2ccccc2c2ccccc12 , please.
Result :: -23.6

Query :: Any idea what its growth inhibition is? The molecule is CC(C)(CCC(C)(C)c1ccccc1)c1ccccc1
Result :: -35.7

Query :: Quick one: growth inhibition of O=C(O)CCc1nc2c(n1-c1ccccc1)C(=O)c1ccccc1C2=O ?
Result :: 20.5

Query :: Returns the measured growth inhibition for the input molecule. Input: CCCCCCSc1nc2c([nH]1)c(=O)n(C)c(=S)n2C
Result :: -3.1

Query :: Dear colleague, I am looking for the recorded growth inhibition of the following molecule: C[Si](C)(C)c1ccc(C(N)=O)cc1
Result :: 16.4

Query :: Looking for the measured growth inhibition of CC(=O)c1ccc(C)cc1C , can you help?
Result :: 4.35

Query :: Recorded growth inhibition for COC1OC(COS(=O)(=O)c2ccc(C)cc2)C2OC(C)(C)OC2C1OS(=O)(=O)c1ccc(C)cc1 (centres undefined) , please?
Result :: 16.8

Query :: Quick one: growth inhibition of O=C(O)c1ccc(Cl)cc1CC(Cl)(Cl)Cl ?
Result :: 25.5

Query :: Please give the measured growth inhibition for this molecule: Cc1ccc(O)c(C=O)c1
Result :: -42.1

Query :: What growth inhibition value was documented for this molecule, O=C1NCC2(CCN(CC3COc4ccccc4O3)CC2)N1c1ccccc1 (centres undefined) ?
Result :: -18.2

Query :: For the molecule C=CC(C)(C)NC(C(=O)N1CCC[C@H]1c1nc(-c2nc(C(=O)OCC=C(C)C)c(C)o2)c(C)o1)C(C)C (some centres undefined) , what growth inhibition is on record?
Result :: -10.7

Query :: Given the molecule BrC/C(=N\N1CCCCC1)c1ccc(Br)cc1 , what is its reported growth inhibition?
Result :: -7.95

Query :: Bench note: what growth inhibition did CC(Oc1ccccc1)C(=O)NNC(=O)OC(C)(C)C (centres undefined) show?
Result :: -21.9

Query :: I'd like to know its growth inhibition. The molecule in question is CCOC(=O)c1ccc(/C(C)=N/NC(N)=S)cc1
Result :: 3.8

Query :: Returns the measured growth inhibition for the input molecule. Input: O=S(=O)(Cc1c[nH]c2ccccc12)c1ccccc1
Result :: -3.2

Query :: Using the record for C=CCNc1ccc(Cl)cc1Cl , report its growth inhibition.
Result :: -6.25

Query :: I am curious: what growth inhibition value has been reported for COc1cccc(/C(C#N)=N/NC(=O)c2nc[nH]c2C)c1 ?
Result :: 8.9

Query :: Record request: growth inhibition value, item CC(=O)Nc1ccc(S(=O)(=O)NC(=O)NCCC(C)C)cc1
Result :: 2.45

Query :: So what does the record say about growth inhibition for COC(=O)C(C)Oc1ccc(O)cc1 (centres undefined) ?
Result :: -3

Query :: What does the data say about its growth inhibition? Entry: N#C/C(=C\c1ccccn1)c1ccc(Cl)cc1
Result :: 1.1

Query :: Any idea what its growth inhibition is? The molecule is CC1CCc2c(O)ccc(O)c21 (centres undefined)
Result :: 5.4

Query :: GET /values?readout=growth inhibition&item= N#Cc1ccc(NC(=O)C(CC(=O)OCc2ccccc2)NC(=O)OCc2ccccc2)cc1 (centres undefined)
Result :: 4.65

Query :: Recorded growth inhibition for NNS(=O)(=O)c1cccc(S(=O)(=O)NN)c1 , please?
Result :: 12.3

Query :: What growth inhibition value was documented for this molecule, Cc1ccc([Si](C)(C)c2ccccc2)cc1 ?
Result :: 13.6

Query :: growth inhibition lookup needed for CCCC[n+]1cccc(C(=O)c2ccccc2)c1 , thanks.
Result :: -6.6

Query :: Need growth inhibition of CCCOC(=O)c1cccnc1C(=O)OCCC , thanks.
Result :: -10.2

Query :: Given the entry CS(=O)(=O)CC(O)(c1ccc(Cl)cc1)c1ccccn1 (centres undefined) , report its measured growth inhibition.
Result :: 0.85

* * *

Assay: NCI Yeast Anticancer Drug Screen. Data for the cln2 rad14 strain (AID 165);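 note: 0% = growth equal to vehicle treated cultures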
Details: S. cerevisiae cln2 rad14 strain, at 50.0 µM, active compounds read high
The panel holds about 79,000 compounds, 15% with a hit somewhere; the sample as a whole holds those more often.
quantity measured: growth inhibition (%)
Respond with the bare value in %.

Query :: Using the record for COC(=O)/C(C)=C/C=C/C(OC)C(OC(N)=O)/C(C)=C/C(C)C(O)C(CC(C)CC1=C(N)C(=O)C=C(N)C1=O)OC (stereo not given) , report its growth inhibition.
Result :: 46.9

Query :: Entry under review: CC(=O)c1cccc(C(=O)O)c1 . Reported growth inhibition?
Result :: -29.7

Query :: Fill blank: measured growth inhibition of the compound CC(=O)OC1C[C@H]2C(OC(=O)c3ccccc3)C3C4(OC(C)=O)COC4C[C@H](OC(C)=O)[C@@]3(C)C(OC(C)=O)[C@H](OC(C)=O)C(=C1C)C2(C)C (stereo not given in full) is ____.
Result :: 28.9

Query :: What does the data say about its growth inhibition? Entry: CC1OC(OC2C(OC(=O)[C@]34CCC(C)(C)C[C@H]3C3=CC[C@@H]5[C@@]6(C)CC[C@H](OC7OC(CO)C(O)C(O)C7OC7OC(CO)C(O)C(O)C7O)C(C)(C)[C@@H]6CC[C@@]5(C)[C@]3(C)CC4)OCC(O)C2O)C(O)C(O)C1OC1OCC(O)C(O)C1O (stereo not given in full)
Result :: -33.8

Query :: I'd like to know its growth inhibition. The compound in question is CCCCCCCCCCCCCCCCOc1ccc(-c2cc(=O)n(C)n2C)cc1OC
Result :: -0.15

Query :: Record request: growth inhibition value, item COc1ccc(N=Nc2sc(N)nc2-c2cccc([N+](=O)[O-])c2)cc1
Result :: -13.8

Query :: Which growth inhibition value is on record for CCC12CCCN(Cc3ccccc3)C1c1c([nH]c3ccccc13)C(C(=O)OC)C2 (stereo not given) ?
Result :: 13.7

Query :: Any idea what growth inhibition was measured for CN1C(=O)n2c(nc3ccccc32)C(N2CCOCC2)(N2CCOCC2)C1=O ?
Result :: 29.9

Query :: Look up growth inhibition: COc1ccc(-c2cc(-c3ccc(OC)cc3)cc(-c3ccc(OC)cc3)c2)cc1
Result :: -27.8

Query :: # growth inhibition lookup, item COC1CCC(/C(C#N)=C/C2CCC(N(C)C)CC2)CC1 (stereo not given)
Result :: 10.6

Query :: Need growth inhibition of Cc1nc(N)[nH]c(=O)c1CCCNC(=O)c1cccc([N+](=O)[O-])c1 , thanks.
Result :: -4.7

Query :: # input compound: CC1CN=C(N(Cc2ccccc2)C(=O)Nc2ccc(Cl)c(Cl)c2)S1 (stereo not given) ; wanted: its growth inhibition
Result :: 26.7

Query :: Which growth inhibition is reported for this compound? Cc1nc(C(N)=S)sc1C(=O)CC(=O)C(=O)Nc1ccc(Br)cc1
Result :: 1.35

Query :: Endpoint output: growth inhibition of CCOC(=O)Cc1ccc(OC)c(OC)c1 . Value?
Result :: -17.1

Query :: # lookup: growth inhibition of Cc1ncc([N+](=O)[O-])n1CCCl
Result :: -27.2

Query :: Please report the recorded growth inhibition for CCC/C(=N/O)C(=O)OCC .
Result :: 6.25

Query :: GET /values?readout=growth inhibition&item= CC1=Nc2nc(=N)nc3cccc(n23)N1
Result :: -6

Query :: Return reported growth inhibition; argument: CCOC(=O)C(C(=O)OCC)C(=O)C(C)(C)C
Result :: 11.2

Query :: Which growth inhibition value belongs to CC(=O)OC1CC(O)CC2=CCC3C4CCC(C(C)(O)C(O)CC5COC(=O)C5C)C4(C)CCC3C21C (stereo not given) ?
Result :: 3.45

Query :: Entry CCOC(=O)C(=O)c1cn(C)c(=O)n(C)c1=O has what growth inhibition?
Result :: 3.8

Query :: Data request, read-out growth inhibition, for N#C/C(=C\n1c(=S)[nH]c2ccccc21)c1nc2ccccc2s1
Result :: -4.15

Query :: Looking for the measured growth inhibition of O=C(CSc1nc(-c2ccccc2)c(-c2ccccc2)[nH]1)NNC(=S)Nc1ccccc1 , can you help?
Result :: -26.3

Query :: Query: growth inhibition; subject: Cc1cc2c3ccccc3n(C)c2c2c1C(=O)c1ccccc1C2=O
Result :: 5.45

Query :: For the compound shown here, O=C(O)C(C(=O)O)C1CCCCC1 , give the reported growth inhibition.
Result :: -0.95

Query :: Requested field: growth inhibition. Item: OCC(O)C(O)Cc1cnc(C(O)C(O)C(O)CO)cn1 (stereo not given)
Result :: -20.2

Query :: growth inhibition lookup needed for CCCCc1ccc(Nc2nc(OC)c3ncn(C4CC(O)C(CO)O4)c3n2)cc1 (stereo not given) , thanks.
Result :: 57.8

Query :: Can you look up the measured growth inhibition of C/C(=N\NC(=O)c1ccccc1O)c1cccc(/C(C)=N/NC(=O)c2ccccc2O)n1.O=S(=O)([O-])[O-].[Fe+2] for me?
Result :: -0.9

Query :: Data request, read-out growth inhibition, for CC(O)CCNC(=O)c1ccccc1 (stereo not given)
Result :: -25.8

Query :: Can you look up the measured growth inhibition of Cc1ccccc1N=CC(C=O)[N+](=O)[O-] (stereo not given) for me?
Result :: 4.1

Query :: State the recorded growth inhibition for this entry: COc1cc(/C=C/C(=O)OCCc2ccccc2)ccc1O
Result :: 89

Query :: Tell me the measured growth inhibition of COC1(OC)OC(c2ccc([N+](=O)[O-])cc2)=C(c2ccc([N+](=O)[O-])cc2)OC1(OC)OC , please.
Result :: 57.4

Query :: Endpoint output: growth inhibition of CC1=Nc2cc(C)c(C)cc2NC(=O)C1 . Value?
Result :: 20.4

Query :: Find the recorded growth inhibition belonging to NC1c2c(Br)sc(N3CCCC3)c2C(=O)C1O (stereo not given) and report it.
Result :: -5.35

Query :: Looking for the measured growth inhibition of COc1ccc(C#CC(=O)O)c(OC)c1 , can you help?
Result :: -30.6

Query :: Consider the compound shown here: CC1=COC(=O)c2ccccc2N1 What is its recorded growth inhibition?
Result :: 14.6
